Test system: CP191
Test: qHTS profiling for inhibitors of Plasmodium falciparum proliferation (AID 504749); note: nearly all actives have a fitted effect of over 60% in size
Settings: P. falciparum in erythrocytes, SYBR Green DNA, 72 h; series mostly up to 12.8 µM
Results filed as inconclusive are left out. Active and inactive are the calls of the source. Calls come from the whole dose curve; as a rule, active = well fitted inhibition curve with a large enough effect; inconclusive = small, poorly fitted or top-dose-only effect; inactive = flat fitted curve, though single readings scatter. Bridge positions count the residues as written; N and C are the ends. Square brackets hold non-standard residues; d marks the D form. Peptide text beside a SMILES is read from it. * marks the point of attachment. Ileψ(thiazoline)Cys = CC[C@H](C)[C@H](N)C1=N[C@H](C(=O)*)CS1; d(aIle) = CC[C@H](C)[C@@H](N)C(=O)O; dOrn = NCCC[C@@H](N)C(=O)O
Write down the outcome that applies. Available outcomes: active, inactive

Would you please look over these solved cases?
Compound	Group
CCO[C@H]1O[C@@H]([C@H](COCc2ccccc2)OCc2ccccc2)[C@@H](OCc2ccccc2)[C@H]1O	inactive
Cc1ccsc1/C=C\C1=NCCCN1C	inactive
CC(C)(C)NC[C@H](O)COc1cccc2c1C[C@@H](O)[C@@H](O)C2	inactive
CC[C@H](C)[C@H](N)C1=N[C@H](C(=O)N[C@@H](CC(C)C)C(=O)N[C@@H](CCC(=O)O)C(=O)N[C@@H](C(=O)N[C@H]2CCCCNC(=O)[C@@H](CC(N)=O)NC(=O)[C@@H](CC(=O)O)NC(=O)[C@@H](Cc3cnc[nH]3)NC(=O)[C@@H](Cc3ccccc3)NC(=O)[C@@H]([C@@H](C)CC)NC(=O)[C@@H](CCCN)NC2=O)[C@@H](C)CC)CS1 ({Ileψ(thiazoline)Cys}-LE[d(aIle)]K[dOrn][d(aIle)][dF][dH][dD][dN]; lactam 4-C)	inactive
O=C(OC[C@@H](O)CO)c1ccccc1Nc1ccnc2cc(Cl)ccc12	inactive

Exam item: Which outcome was assigned to CC(C)Oc1ccc2c(=O)cc(-c3ccccc3)oc2c1 in this test?
Marked response: inactive

Exam item: Which outcome was assigned to CO[C@]12C(COC(N)=O)C3=C(C(=O)C(C)=C(N)C3=O)N1CC1NC12 (some centres undefined) in this test?
Marked response: active

Exam item: Which outcome was assigned to CCN1CCC[C@@H](OC(=O)C(c2ccccc2)c2ccccc2)C1 in this test?
Marked response: inactive

Exam item: Which outcome was assigned to NS(=O)(=O)c1cc2c(cc1Cl)N[C@@H](C(Cl)Cl)NS2(=O)=O in this test?
Marked response: inactive

Provenance of the data: PubChem BioAssay (NCATS)
